- System: Staphylococcus aureus
- ASSAY DETAILS: Antibacterial activity against vancomycin A-resistant Staphylococcus aureus VRS2
- Type: functional
RECORDED ENDPOINT: MIC (µg/mL)

[[record]]
record_smiles = "CN[C@H](CC(C)C)C(=O)N[C@H]1C(=O)N[C@@H](CC(N)=O)C(=O)N[C@H]2C(=O)N[C@H]3C(=O)N[C@H](C(=O)N[C@H](C(=O)O)c4cc(O)cc(O)c4-c4cc3ccc4O)[C@H](O)c3ccc(c(/C=C/c4ccc(C(F)(F)F)cc4)c3)Oc3cc2cc(c3O[C@@H]2O[C@H](CO)[C@@H](O)[C@H](O)[C@H]2O[C@H]2C[C@](C)(N)[C@H](O)[C@H](C)O2)Oc2ccc(cc2Cl)[C@H]1O"
reading_unit = "µg/mL"
observed_result = 64

[[record]]
record_smiles = "CN[C@H](CC(C)C)C(=O)N[C@H]1C(=O)N[C@@H](CC(N)=O)C(=O)N[C@H]2C(=O)N[C@H]3C(=O)N[C@H](C(=O)N[C@H](C(=O)O)c4cc(O)cc(O)c4-c4cc3ccc4O)[C@H](O)c3ccc(c(-c4ccccc4OC)c3)Oc3cc2cc(c3O[C@@H]2O[C@H](CO)[C@@H](O)[C@H](O)[C@H]2O[C@H]2C[C@](C)(N)[C@H](O)[C@H](C)O2)Oc2ccc(cc2Cl)[C@H]1O"
reading_unit = "µg/mL"
observed_result = 64


###

- Tested on: Enterococcus faecalis
- ASSAY DETAILS: Antibacterial activity against vancomycin-susceptible Enterococcus faecalis SR1004
- Assay type: functional
RECORDED ENDPOINT: MIC (µg/mL)

[[record]]
record_smiles = "CN[C@H](CC(C)C)C(=O)N[C@H]1C(=O)N[C@@H](CC(N)=O)C(=O)N[C@H]2C(=O)N[C@H]3C(=O)N[C@H](C(=O)N[C@H](C(=O)O)c4cc(O)cc(O)c4-c4cc3ccc4O)[C@H](O)c3ccc(c(/C=C/CCCc4ccccc4)c3)Oc3cc2cc(c3O[C@@H]2O[C@H](CO)[C@@H](O)[C@H](O)[C@H]2O[C@H]2C[C@](C)(N)[C@H](O)[C@H](C)O2)Oc2ccc(cc2/C=C/CCCc2ccccc2)[C@H]1O"
observed_result = 32

[[record]]
record_smiles = "CCCCCC/C=C/c1cc2ccc1Oc1cc3cc(c1O[C@@H]1O[C@H](CO)[C@@H](O)[C@H](O)[C@H]1O[C@H]1C[C@](C)(N)[C@H](O)[C@H](C)O1)Oc1ccc(cc1Cl)[C@@H](O)[C@@H](NC(=O)[C@@H](CC(C)C)NC)C(=O)N[C@@H](CC(N)=O)C(=O)N[C@H]3C(=O)N[C@H]1C(=O)N[C@H](C(=O)N[C@H](C(=O)O)c3cc(O)cc(O)c3-c3cc1ccc3O)[C@@H]2O"
observed_result = 2

[[record]]
record_smiles = "CN[C@H](CC(C)C)C(=O)N[C@H]1C(=O)N[C@@H](CC(N)=O)C(=O)N[C@H]2C(=O)N[C@H]3C(=O)N[C@H](C(=O)N[C@H](C(=O)O)c4cc(O)cc(O)c4-c4cc3ccc4O)[C@H](O)c3ccc(c(/C=C/c4ccccc4)c3)Oc3cc2cc(c3O[C@@H]2O[C@H](CO)[C@@H](O)[C@H](O)[C@H]2O[C@H]2C[C@](C)(N)[C@H](O)[C@H](C)O2)Oc2ccc(cc2Cl)[C@H]1O"
observed_result = 1


###

- System: Staphylococcus aureus
- ASSAY DETAILS: Antibacterial activity against vancomycin A-resistant Staphylococcus aureus VRS2
- Assay type: functional
RECORDED ENDPOINT: MIC (µg/mL)

[[record]]
record_smiles = "CN[C@H](CC(C)C)C(=O)N[C@H]1C(=O)N[C@@H](CC(N)=O)C(=O)N[C@H]2C(=O)N[C@H]3C(=O)N[C@H](C(=O)N[C@H](C(=O)O)c4cc(O)cc(O)c4-c4cc3ccc4O)[C@H](O)c3ccc(c(/C=C/c4ccc(OC)cc4)c3)Oc3cc2cc(c3O[C@@H]2O[C@H](CO)[C@@H](O)[C@H](O)[C@H]2O[C@H]2C[C@](C)(N)[C@H](O)[C@H](C)O2)Oc2ccc(cc2Cl)[C@H]1O"
recorded_endpoint = "MIC"
op = "="
observed_result = 16

[[record]]
record_smiles = "CCCCCC/C=C/c1cc2ccc1Oc1cc3cc(c1O[C@@H]1O[C@H](CO)[C@@H](O)[C@H](O)[C@H]1O[C@H]1C[C@](C)(N)[C@H](O)[C@H](C)O1)Oc1ccc(cc1/C=C/CCCCCC)[C@@H](O)[C@@H](NC(=O)[C@@H](CC(C)C)NC)C(=O)N[C@@H](CC(N)=O)C(=O)N[C@H]3C(=O)N[C@H]1C(=O)N[C@H](C(=O)N[C@H](C(=O)O)c3cc(O)cc(O)c3-c3cc1ccc3O)[C@@H]2O"
recorded_endpoint = "MIC"
op = ">"
observed_result = 64

[[record]]
record_smiles = "CCCCCC/C=C/c1cc2ccc1Oc1cc3cc(c1O[C@@H]1O[C@H](CO)[C@@H](O)[C@H](O)[C@H]1O[C@H]1C[C@](C)(N)[C@H](O)[C@H](C)O1)Oc1ccc(cc1Cl)[C@@H](O)[C@@H](NC(=O)[C@@H](CC(C)C)NC)C(=O)N[C@@H](CC(N)=O)C(=O)N[C@H]3C(=O)N[C@H]1C(=O)N[C@H](C(=O)N[C@H](C(=O)O)c3cc(O)cc(O)c3-c3cc1ccc3O)[C@@H]2O"
recorded_endpoint = "MIC"
op = ">"
observed_result = 64

[[record]]
record_smiles = "CN[C@H](CC(C)C)C(=O)N[C@H]1C(=O)N[C@@H](CC(N)=O)C(=O)N[C@H]2C(=O)N[C@H]3C(=O)N[C@H](C(=O)N[C@H](C(=O)O)c4cc(O)cc(O)c4-c4cc3ccc4O)[C@H](O)c3ccc(c(/C=C/c4ccccc4)c3)Oc3cc2cc(c3O[C@@H]2O[C@H](CO)[C@@H](O)[C@H](O)[C@H]2O[C@H]2C[C@](C)(N)[C@H](O)[C@H](C)O2)Oc2ccc(cc2Cl)[C@H]1O"
recorded_endpoint = "MIC"
op = "="
observed_result = 16


###

- System: Staphylococcus aureus
- ASSAY DETAILS: Antibacterial activity against vancomycin A-resistant Staphylococcus aureus VRS2
- Type: functional
Item-by-item account of MIC
RECORDED ENDPOINT: MIC

[[record]]
record_smiles = "CN[C@H](CC(C)C)C(=O)N[C@H]1C(=O)N[C@@H](CC(N)=O)C(=O)N[C@H]2C(=O)N[C@H]3C(=O)N[C@H](C(=O)N[C@H](C(=O)O)c4cc(O)cc(O)c4-c4cc3ccc4O)[C@H](O)c3ccc(c(/C=C/c4ccc(-c5ccccc5)cc4)c3)Oc3cc2cc(c3O[C@@H]2O[C@H](CO)[C@@H](O)[C@H](O)[C@H]2O[C@H]2C[C@](C)(N)[C@H](O)[C@H](C)O2)Oc2ccc(cc2Cl)[C@H]1O"
recorded_endpoint = "MIC"
observed_result = "> 64 µg/mL"

[[record]]
record_smiles = "CN[C@H](CC(C)C)C(=O)N[C@H]1C(=O)N[C@@H](CC(N)=O)C(=O)N[C@H]2C(=O)N[C@H]3C(=O)N[C@H](C(=O)N[C@H](C(=O)O)c4cc(O)cc(O)c4-c4cc3ccc4O)[C@H](O)c3ccc(c(/C=C/CCCc4ccccc4)c3)Oc3cc2cc(c3O[C@@H]2O[C@H](CO)[C@@H](O)[C@H](O)[C@H]2O[C@H]2C[C@](C)(N)[C@H](O)[C@H](C)O2)Oc2ccc(cc2Cl)[C@H]1O"
recorded_endpoint = "MIC"
observed_result = "> 64 µg/mL"

[[record]]
record_smiles = "CN[C@H](CC(C)C)C(=O)N[C@H]1C(=O)N[C@@H](CC(N)=O)C(=O)N[C@H]2C(=O)N[C@H]3C(=O)N[C@H](C(=O)N[C@H](C(=O)O)c4cc(O)cc(O)c4-c4cc3ccc4O)[C@H](O)c3ccc(c(/C=C/CCCc4ccccc4)c3)Oc3cc2cc(c3O[C@@H]2O[C@H](CO)[C@@H](O)[C@H](O)[C@H]2O[C@H]2C[C@](C)(N)[C@H](O)[C@H](C)O2)Oc2ccc(cc2/C=C/CCCc2ccccc2)[C@H]1O"
recorded_endpoint = "MIC"
observed_result = "> 64 µg/mL"

